Cited source: patent US20260132123A1

experiment: Mouse hepatocyte stability; assay type: in vitro ADME; conditions: hepatocyte metabolism category, mouse
observed property: Heps Category

compound="O=C(c1sccc1Cl)N1CCC[C@H]1c1ccccc1-c1cc(O)ccc1F (single isomer, unassigned)" observed_property="Heps Category" result_value=High
compound=CC(C)CN(C(=O)c1ccccc1F)c1cccc(N(C)Cc2cnc[nH]2)c1 observed_property="Heps Category" result_value=Mod
compound="COc1cccc(-c2ccccc2[C@@H]2CCCN2C(=O)c2[nH]ncc2Cl)c1 (single isomer, unassigned)" observed_property="Heps Category" result_value=High
compound="O=C(C(c1ccccc1)n1cnc2[nH]ncc2c1=S)N1CCCCCC1 (centres unmarked) [AG18051, reference compound]" observed_property="Heps Category" result_value=High
compound="Cc1ccsc1C(=O)N1CCC[C@H]1c1ccccc1-c1cccc(Cl)c1 (single isomer, unassigned)" observed_property="Heps Category" result_value=High
compound=CC(C)CN(C(=O)c1c(F)cccc1F)c1cccc(N(C)Cc2c[nH]cn2)c1 observed_property="Heps Category" result_value=High
compound=Cc1ccc(C(=O)N(CC(C)C)c2cccc(N(C)Cc3c[nH]cn3)c2)c(F)c1 observed_property="Heps Category" result_value=Mod
compound=Cc1ccsc1C(=O)N(CC(C)C)c1cccc(N(C)Cc2c[nH]cn2)c1 observed_property="Heps Category" result_value=Mod

* * *

Alamar Blue % Viability (50 μM Dose) overview
tested on: mtsABAD HEK293 cells; assay: Alamar Blue cell viability assay; type: cell-based, human; conditions: 50 μM compound
observed property: Alamar Blue % Viability (50 μM Dose)

compound="Cc1ccsc1C(=O)N1CCC[C@H]1c1ccccc1-c1ccc(C(F)(F)F)cc1 [ESC1002314]" target_desc="mtsABAD HEK293 cells" result_value=87.10%
compound="Cc1n[nH]c(Cc2ccccc2)c1-c1ccccc1O [ESC1002170]" target_desc="mtsABAD HEK293 cells" result_value=79.141%
compound="Cc1ccsc1C(=O)N1CCC[C@H]1c1ccccc1-c1ccc(S(C)(=O)=O)cc1 [ESC1002319]" target_desc="mtsABAD HEK293 cells" result_value=82.10%
compound="CC(C)CN(C(=O)C1CCCCC1)c1cccc(N(C)Cc2cnc[nH]2)c1 [ESC1002166]" target_desc="mtsABAD HEK293 cells" result_value=82.237%
compound="CCCC(=O)N(CC(C)C)c1cccc(N(C)Cc2cnc[nH]2)c1 [ESC1002235]" target_desc="mtsABAD HEK293 cells" result_value=84.09%
compound="COCCn1cnc(CN(C)c2cccc(NC(=O)c3ccccc3F)c2)c1 [ESC1002163]" target_desc="mtsABAD HEK293 cells" result_value=78.775%
compound="Cc1ccsc1C(=O)N1CCC[C@@H]1c1ccccc1-c1cn[nH]c1 [ESC1002092]" target_desc="mtsABAD HEK293 cells" result_value=80.606%
compound="Cc1ccsc1C(=O)N1CCC[C@H]1c1ccccc1-c1ccc(C(=O)N(C)C)cc1 [ESC1002317]" target_desc="mtsABAD HEK293 cells" result_value=83.39%
compound="COCCN(C(=O)c1ccccc1F)c1cccc(N(C)Cc2cn(CCOC)cn2)c1 [ESC1002164]" target_desc="mtsABAD HEK293 cells" result_value=77.951%
compound="CC(C)CN(C(=O)C(C)C)c1cccc(N(C)Cc2cnc[nH]2)c1 [ESC1002165]" target_desc="mtsABAD HEK293 cells" result_value=88.291%
compound="CC(C)CN(C(=O)c1ccccc1F)c1cccc(N(C)Cc2ccc(O)nc2)c1 [ESC1002212]" target_desc="mtsABAD HEK293 cells" result_value=94.278%
compound="CC(C)CN(C(=O)c1ccc(Cl)cc1)c1cccc(N(C)Cc2cnc[nH]2)c1 [ESC1002183]" target_desc="mtsABAD HEK293 cells" result_value=89.373%
compound="Cc1ccsc1C(=O)N1CCC[C@H]1c1ccccc1-c1ccccc1Cl [ESC1002324]" target_desc="mtsABAD HEK293 cells" result_value=85.64%

* * *

test: Mouse hepatocyte stability; format: in vitro ADME; design: unit not given here; conditions: mouse hepatocytes; k=absorption rate constant (so in the source)
Use Criterion met when the recorded k is no lower than 0.05; use Criterion not met when it is lower.

compound="Cc1ncc(CN(C)c2cccc(N(CC(C)C)C(=O)c3ccccc3F)c2)[nH]1 [ESC1002204]" assigned_class="Criterion met"
compound="Cc1ccsc1C(=O)N(CC(C)C)c1cccc(N(C)Cc2c[nH]cn2)c1 [ESC1002597]" assigned_class="Criterion not met"
compound="O=C(c1sccc1Cl)N1CCC[C@H]1c1ccccc1-c1cccc(O)c1 (single isomer, unassigned) [ESC1002755]" assigned_class="Criterion met"
compound="COc1cccc(-c2ccccc2[C@@H]2CCCN2C(=O)c2[nH]ncc2Cl)c1 (single isomer, unassigned) [ESC1002757]" assigned_class="Criterion met"
compound="Cc1ccc(C(=O)N(CC(C)C)c2cccc(N(C)Cc3c[nH]cn3)c2)c(F)c1 [ESC1002575]" assigned_class="Criterion not met"
compound="O=C(c1[nH]ncc1Cl)N1CCC[C@H]1c1ccccc1-c1cccc(O)c1 (single isomer, unassigned) [ESC1002799]" assigned_class="Criterion not met"
compound="O=C(C(c1ccccc1)n1cnc2[nH]ncc2c1=S)N1CCCCCC1 (centres unmarked) [AG18051, reference compound]" assigned_class="Criterion met"
compound="CC(C)CN(C(=O)c1c(F)cccc1F)c1cccc(N(C)Cc2c[nH]cn2)c1 [ESC1002456]" assigned_class="Criterion not met"
compound="O=C(c1sccc1Cl)N1CCC[C@H]1c1ccccc1-c1cc(O)ccc1F (single isomer, unassigned) [ESC1002842]" assigned_class="Criterion met"
compound="CC(C)CN(C(=O)c1ccccc1F)c1cccc(N(C)Cc2cnc[nH]2)c1 [ESC1002033]" assigned_class="Criterion not met"
compound="Cc1ccsc1C(=O)N1CCC[C@H]1c1ccccc1-c1cccc(Cl)c1 (single isomer, unassigned) [ESC1002769]" assigned_class="Criterion met"

* * *

target: 17β-HSD10 (Homo sapiens); construct: Histev (histidine tag with TEV site) (N, cleaved yes); made in house; host or cells: E. coli BL21-CodonPlus; test: 17β-HSD10 (ABAD) enzyme inhibition assay, NADH oxidation read at 340 nm (primary screen and dose response); type: biochemical
Sequence (Q99714 whole entry): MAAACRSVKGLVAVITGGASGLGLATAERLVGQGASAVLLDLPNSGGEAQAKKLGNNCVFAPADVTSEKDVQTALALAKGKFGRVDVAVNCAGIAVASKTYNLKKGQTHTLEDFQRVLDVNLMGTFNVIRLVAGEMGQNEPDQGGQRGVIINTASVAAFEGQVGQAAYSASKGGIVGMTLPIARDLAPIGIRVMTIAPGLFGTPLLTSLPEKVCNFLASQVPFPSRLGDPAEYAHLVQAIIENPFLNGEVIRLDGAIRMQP
observed property: 17β-HSD10 / ABAD activity in words (SAR discussion)

compound="O=C(c1sccc1Cl)N1CCC[C@H]1c1ccccc1-c1cccc2[nH]ncc12 (racemic)" result_value="less active"
compound="O=C(c1sccc1Cl)N1CCC[C@H]1c1ccccc1-c1ccnc(O)c1 (racemic)" result_value="less active"

* * *

test system: mtsABAD HEK293 cells; experiment: Lactate dehydrogenase (LDH) cytotoxicity assay; format: cell-based, human; settings: 50 μM compound
LDH % Toxicity (50 μM Dose) overview
observed property: LDH % Toxicity (50 μM Dose) (%)

compound=Cc1ccsc1C(=O)N1CCC[C@H]1c1ccccc1-c1cccc(C(F)(F)F)c1 observed_property="LDH % Toxicity (50 μM Dose)" result_value=5.12
compound=CC(C)CN(C(=O)C1CCCCC1)c1cccc(N(C)Cc2cnc[nH]2)c1 observed_property="LDH % Toxicity (50 μM Dose)" result_value=4.554
compound=Cc1ccsc1C(=O)N1CCC[C@H]1c1ccccc1-c1ccccc1Cl observed_property="LDH % Toxicity (50 μM Dose)" result_value=5.04
compound=CC(C)CN(C(=O)c1ccccc1F)c1cccc(N(C)Cc2cn[nH]c2)c1 observed_property="LDH % Toxicity (50 μM Dose)" result_value=5.243
compound=Cc1ccsc1C(=O)N1CCC[C@H]1c1ccccc1-c1ccc(OC(F)(F)F)cc1 observed_property="LDH % Toxicity (50 μM Dose)" result_value=5.91
compound=Cc1ccsc1C(=O)N1CCC[C@@H]1c1ccccc1-c1cccnc1 observed_property="LDH % Toxicity (50 μM Dose)" result_value=5.162
compound="COc1ccc(-c2ccccc2[C@H]2CCCN2C(=O)c2sccc2C)cc1 [ESC1002089]" observed_property="LDH % Toxicity (50 μM Dose)" result_value=5.398
compound=Cc1ccsc1C(=O)N1CCC[C@H]1c1ccccc1-c1ccc(Cl)c(C(F)(F)F)c1 observed_property="LDH % Toxicity (50 μM Dose)" result_value=4.61
compound=CC(C)CN(C(=O)c1ccccc1F)c1ccc2c(c1)N(Cc1cnc[nH]1)CCC2 observed_property="LDH % Toxicity (50 μM Dose)" result_value=3.94
compound=CC(C)CN(C(=O)c1ccccc1F)c1cccc(N(C)Cc2ccccn2)c1 observed_property="LDH % Toxicity (50 μM Dose)" result_value=5.698
compound=Cc1ccsc1C(=O)N1CCC[C@H]1c1ccccc1-c1ccc(C(=O)N(C)C)cc1 observed_property="LDH % Toxicity (50 μM Dose)" result_value=4.58
compound=CC(C)CN(C(=O)Cc1ccccc1)c1cccc(N(C)Cc2cnc[nH]2)c1 observed_property="LDH % Toxicity (50 μM Dose)" result_value=4.492
compound=Cc1ccsc1C(=O)N1CCC[C@H]1c1ccccc1-c1ccc(C(F)(F)F)cc1 observed_property="LDH % Toxicity (50 μM Dose)" result_value=5.98
compound=CCN(C(=O)c1ccccc1F)c1cccc(N(C)Cc2cnc[nH]2)c1 observed_property="LDH % Toxicity (50 μM Dose)" result_value=4.81
compound=COCCN(C(=O)c1ccccc1F)c1cccc(N(C)Cc2c[nH]cn2)c1 observed_property="LDH % Toxicity (50 μM Dose)" result_value=5.22
compound=Cc1ccsc1C(=O)N1CCC[C@H]1c1ccccc1-c1ccc(N2CCOCC2)cc1 observed_property="LDH % Toxicity (50 μM Dose)" result_value=2.55
compound=CN(Cc1c[nH]cn1)c1cccc(N(CC2CC2)C(=O)c2ccccc2F)c1 observed_property="LDH % Toxicity (50 μM Dose)" result_value=4.76
compound=CCc1ccc(CN(C)c2cccc(N(CC(C)C)C(=O)c3ccccc3F)c2)cn1 observed_property="LDH % Toxicity (50 μM Dose)" result_value=8.010
